The measured values listed here are drawn from patent US20250228239A1.

Measured pest or weed control at 50 µg/cm2, listed per entry for reference.
- Tested on: Beet Armyworm (Spodoptera exigua, LAPHEG)
- method: Bioassays on Beet Armyworm (BAW), 128-well diet tray assay
- Format: in vivo
- run.parameters: Spodoptera exigua; Table ABC: Biological Results; species BAW; read-out: BAW

molecule | pest or weed control at 50 µg/cm2
O=C(Nc1ccc(F)c(NC(=O)C(F)(F)Cl)c1F)c1cc(NC(=O)[C@H]2[C@H](c3ccc(F)c(C(F)(F)F)c3)C2(Cl)Cl)ccc1Cl | 50 to 100%

Q) Field request: pest or weed control at 50 µg/cm2 | item: O=C(Nc1ccc(F)cc1F)c1cc(NC(=O)[C@H]2[C@H](c3cc(Cl)c(Cl)c(Br)c3)C2(Cl)Cl)ccc1Cl (relative stereo)
A) 50 to 100%

Q) Field request: pest or weed control at 50 µg/cm2 | item: O=C(Nc1ccc(F)cc1F)c1cc(NC(=O)[C@H]2[C@H](c3ccc(I)cc3)C2(Cl)Cl)ccc1Cl (relative stereo)
A) 50 to 100%

====

- Test system: Yellow Fever Mosquito (Aedes aegypti, AEDSAE)
- Assay type: in vivo
- run.parameters: Table ABC: Biological Results; species YFM
measurement.label: YFM

Look over these answered cases.
molecule | YFM
O=C(Nc1ccc(F)cc1F)c1cc(NC(=O)[C@H]2[C@@H](c3cc(F)c(Cl)c(Cl)c3)C2(Cl)Cl)ccc1Cl (relative stereo) [F1025] | A (80–100)
Nc1ccc(F)c(NC(=O)c2cc(NC(=O)[C@H]3[C@H](c4cc(Cl)cc(Cl)c4)C3(Cl)Cl)ccc2Cl)c1F [F1227] | A (80–100)
O=C(Nc1ccc(F)cc1)c1c(Cl)ccc(NC(=O)[C@H]2[C@H](c3ccc(F)c(Cl)c3)C2(Cl)Cl)c1Cl (relative stereo) [F1103] | A (80–100)
COc1ccc(CNc2c(F)ccc(NC(=O)c3cc(NC(=O)[C@H]4[C@H](c5ccc(F)c(C(F)(F)F)c5)C4(Cl)Cl)ccc3Cl)c2F)cc1 (relative stereo) [F1096] | A (80–100)
COc1c(F)cc(NC(=O)[C@H]2[C@H](c3ccc(F)c(Cl)c3)C2(Cl)Cl)cc1C(=O)Nc1ccc(NC(C)=O)cc1 (relative stereo) [F1220] | A (80–100)
CC1(C(=O)Nc2c(F)ccc(NC(=O)c3cc(NC(=O)[C@H]4[C@H](c5ccc(F)c(C(F)(F)F)c5)C4(Cl)Cl)ccc3Cl)c2F)CC1(Cl)Cl (stereo partly drawn) [F1273] | A (80–100)
C=Cc1cc(NC(=O)c2cc(NC(=O)[C@H]3[C@H](c4cc(Cl)cc(Cl)c4)C3(Cl)Cl)ccc2Cl)ccc1F (relative stereo) [F1311] | A (80–100)
CC(C)(C)OC(=O)Nc1c(F)ccc(NC(=O)c2cc(NC(=O)[C@H]3[C@H](c4ccc(F)c(C(F)(F)F)c4)C3(Cl)Cl)ccc2Cl)c1F (relative stereo) [F1078] | A (80–100)
CC(Cl)(Cl)C(=O)Nc1c(F)ccc(NC(=O)c2cc(NC(=O)[C@H]3[C@H](c4ccc(F)c(C(F)(F)F)c4)C3(Cl)Cl)ccc2Cl)c1F [F1351] | A (80–100)
CCCC(=O)Nc1c(F)ccc(NC(=O)c2cc(NC(=O)[C@H]3[C@H](c4ccc(F)c(C(F)(F)F)c4)C3(Cl)Cl)ccc2Cl)c1F [F1385] | A (80–100)

# next molecule below
Q) Field request: YFM | item: Cc1cc(NC(=O)C(F)F)ccc1NC(=O)c1cc(NC(=O)[C@H]2[C@H](c3ccc(Cl)c(Cl)c3)C2(Cl)Cl)ccc1Cl (relative stereo) [F1062]
A) A (80–100)

====

- System: Cabbage Looper (Trichoplusia ni, TRIPNI)
- method: Bioassays on Cabbage Looper (CL), 128-well diet tray assay
- Type: in vivo
- run.parameters: Trichoplusia ni; Cabbage Looper; rating class; read-out: CL
measurement.label: pest or weed control at 50 µg/cm2

Look over these answered cases.
mol.smiles | endpoint.value
O=C(Nc1c(F)ccc(NC(=O)C(F)(F)C(F)F)c1F)c1cc(NC(=O)[C@H]2[C@H](c3ccc(Cl)c(Cl)c3)C2(Cl)Cl)ccc1Cl | 50 to 100%
Cc1cc(NC(=O)[C@H]2[C@H](c3ccc(Cl)c(Cl)c3)C2(Cl)Cl)cc(C(=O)Nc2ccc(F)c(N)c2F)c1Cl | 50 to 100%

# next compound below
Q) Field request: pest or weed control at 50 µg/cm2 | item: "O=C(Nc1cc(NC(=O)C(F)F)c(F)cc1F)c1cc(NC(=O)[C@H]2[C@H](c3cc(Cl)cc(Cl)c3)C2(Cl)Cl)cc(F)c1Cl"
A) 50 to 100%

====

- Tested on: Green Peach Aphid (Myzus persicae, MYZUPE)
- method: Bioassays on Green Peach Aphid (GPA), foliar spray on cabbage seedlings
- Type: in vivo
- run.parameters: 72 h, Green Peach Aphid, Table ABC / ABC-DP rating, read-out: GPA rating
measurement.label: pest or weed control at 200 µg/mL

compound | pest or weed control at 200 µg/mL
Cc1c(Cl)cc(NC(=O)[C@H]2[C@H](c3ccc(F)c(Cl)c3)C2(Cl)Cl)cc1C(=O)NCC(F)(F)F (relative stereo) | 80 to 100%
CC(F)(F)CNC(=O)c1cc(NC(=O)[C@H]2[C@H](c3cc(Cl)cc(Cl)c3)C2(Cl)Cl)ccc1Cl (relative stereo) | 80 to 100%
CCNC(=O)c1c(F)ccc(NC(=O)[C@H]2[C@H](c3ccc(F)c(Cl)c3)C2(Cl)Cl)c1F (relative stereo) | 80 to 100%
O=C(CCCNC(=O)c1cc(NC(=O)[C@H]2[C@H](c3cc(Cl)cc(Cl)c3)C2(Cl)Cl)ccc1Cl)NCC(F)(F)F (relative stereo) | 0 to 80%
O=C(NCCCCl)c1c(Cl)ccc(NC(=O)[C@H]2[C@H](c3ccc(F)c(Cl)c3)C2(Cl)Cl)c1Cl (relative stereo) | 0 to 80%

Q) Field request: pest or weed control at 200 µg/mL | item: O=C(NCCF)c1c(Cl)ccc(NC(=O)[C@H]2[C@H](c3ccc(F)c(Cl)c3)C2(Cl)Cl)c1Cl (relative stereo)
A) 0 to 80%

Q) Field request: pest or weed control at 200 µg/mL | item: CCCNC(=O)c1c(F)ccc(NC(=O)[C@H]2[C@H](c3ccc(F)c(Cl)c3)C2(Cl)Cl)c1F (relative stereo)
A) 80 to 100%

Q) Field request: pest or weed control at 200 µg/mL | item: O=C(CNC(=O)c1cc(NC(=O)[C@H]2[C@H](c3cc(Cl)cc(Cl)c3)C2(Cl)Cl)ccc1Cl)NCC(F)(F)F (relative stereo)
A) 80 to 100%

Q) Field request: pest or weed control at 200 µg/mL | item: O=C(NCCNC(=O)C(F)(F)F)c1cc(NC(=O)[C@H]2[C@H](c3cc(Cl)cc(Cl)c3)C2(Cl)Cl)ccc1Cl (relative stereo)
A) 80 to 100%

Q) Field request: pest or weed control at 200 µg/mL | item: O=C(NCC(F)(F)F)c1cc(NC(=O)[C@H]2[C@H](c3ccc(F)c(Cl)c3F)C2(Cl)Cl)ccc1Cl (relative stereo)
A) 0 to 80%

Q) Field request: pest or weed control at 200 µg/mL | item: O=C(NNC(=O)c1cc(NC(=O)[C@H]2[C@H](c3cc(Cl)cc(Cl)c3)C2(Cl)Cl)ccc1Cl)Nc1ccccc1 (relative stereo)
A) 80 to 100%

Q) Field request: pest or weed control at 200 µg/mL | item: O=C(NCC(F)(F)F)c1c(Cl)ccc(NC(=O)[C@H]2[C@H](c3ccc(F)c(Cl)c3)C2(Cl)Cl)c1Cl (relative stereo)
A) 0 to 80%

Q) Field request: pest or weed control at 200 µg/mL | item: Nc1c(F)ccc(NC(=O)c2cc(NC(=O)[C@H]3[C@H](c4ccc(F)c(C(F)(F)F)c4)C3(Cl)Cl)ccc2Cl)c1F (relative stereo)
A) 80 to 100%

Q) Field request: pest or weed control at 200 µg/mL | item: O=C(CNC(=O)c1cc(NC(=O)[C@H]2[C@H](c3cc(Cl)cc(Cl)c3)C2(Cl)Cl)ccc1Cl)NCCC(F)(F)F (relative stereo)
A) 80 to 100%

Q) Field request: pest or weed control at 200 µg/mL | item: O=C(NCC(F)(F)F)c1c(F)ccc(NC(=O)[C@H]2[C@H](c3ccc(F)c(Cl)c3)C2(Cl)Cl)c1F (relative stereo)
A) 80 to 100%

Q) Field request: pest or weed control at 200 µg/mL | item: Cc1cc(NC(=O)[C@H]2[C@H](c3ccc(F)c(Cl)c3)C2(Cl)Cl)cc(C(=O)NCC(F)(F)C(F)(F)F)c1Cl (relative stereo)
A) 80 to 100%

Q) Field request: pest or weed control at 200 µg/mL | item: Cc1cc(NC(=O)[C@H]2[C@H](c3ccc(F)c(Cl)c3)C2(Cl)Cl)cc(C(=O)NCCCCl)c1Cl (relative stereo)
A) 0 to 80%

Q) Field request: pest or weed control at 200 µg/mL | item: O=C(NCCF)c1c(F)ccc(NC(=O)[C@H]2[C@H](c3ccc(F)c(Cl)c3)C2(Cl)Cl)c1F (relative stereo)
A) 80 to 100%
